Parameter: TGI. Scope: all listed entries.
Tested on: A549 NSCLC
Test: NCI tumour cell line growth inhibition, 48 h

O=C1C(Cl)=C(N2CCOCC2)C(=O)c2ccccc21 = 32.3 µM
Cc1ccc(C2=Nc3ccccc3NC(=O)C2)cc1 = > 100 µM
CO/N=C1/NC(=O)/C(=C/c2ccc3ncccc3c2)S1 = > 25 µM
CC1(C)N=C(N)N=C(N)N1c1ccc(CCCCc2ccc(Cl)cc2Cl)cc1 = 14.7 µM
CN(/N=N/c1nc(OCc2ccccc2)c2[nH]cnc2n1)C(=O)N(C)/N=N/c1nc(OCc2ccccc2)c2[nH]cnc2n1 = > 100 µM
COc1ccc(C(=O)/C=C/c2cc(C(=O)c3cc(OC)c(OC)c(OC)c3)ccc2OC)cc1 = > 100 µM
O=C(O)c1cc2c(cc1S(=O)(=O)O)C1C(C3C2C2(Cl)C(Cl)=C(Cl)C3(Cl)C2(Cl)Cl)C2(Cl)C(Cl)=C(Cl)C1(Cl)C2(Cl)Cl (centres undefined) = > 100 µM
COc1cccc(NC(=O)N/C(=C/c2ccc(N(CCC#N)CCC#N)cc2)NC(=O)c2cc([N+](=O)[O-])ccc2Cl)c1 = > 100 µM

Would you kindly look at the next entry?
Name the recorded TGI for COc1ccc(NC(C)=O)c(C(=O)CCNC(C)=O)c1 .
> 100 µM

----------
Listed here are molecules together with their documented TGI.
Test system: CCRF-CEM leukemia
Assay: NCI tumour cell line growth inhibition, 48 h

COC1CC(OS(=O)(=O)c2ccc(C)cc2)C(OS(=O)(=O)c2ccc(C)cc2)C(COS(=O)(=O)c2ccc(C)cc2)O1 (configuration not stated) = > 100 µM
CCOC(=O)CC[C@@H](NC(=O)c1ccc(NCc2ccc3nc(OC)c(OC)nc3c2)cc1)C(=O)OCC = > 100 µM
Nc1ncc(-c2ccc(C(F)(F)F)cc2)c(NC2CCCCCC2)n1 = 52.8 µM

Value wanted: TGI (CCRF-CEM leukemia) of entry CCOc1cc2ncc(C#N)c(Nc3ccc(F)c(Cl)c3)c2cc1NC(=O)/C=C/CN(C)C
> 7.16 µM

For O=S(=O)(NC(c1ccccc1)(c1cc2ccccc2[nH]1)c1cc2ccccc2n1S(=O)(=O)c1ccccc1)c1ccccc1 (configuration not stated) then?
> 100 µM

----------
Tested on: HOP-92 NSCLC
Experiment: NCI tumour cell line growth inhibition, 48 h
Let's look at some compounds and their measured GI50.

O=[N+]([O-])c1cc(Br)cc2c1[nH]c1ccc(Br)cc12 = 7.85 µM

Record request: GI50 value, item CCCCC(=O)[O-].N.N.N.N.N.[Co+3].[O-][Cl+3]([O-])([O-])[O-]
> 100 µM

Consider next the compound Cc1ccc(NS(=O)(=O)c2cc(C)ccc2C)cc1 in the same way.
12.9 µM

What do you have for Cl.Fc1c[c-]c(-c2ccccn2)c(F)c1.[Pt].c1ccc([PH+](CC[PH+](c2ccccc2)c2ccccc2)c2ccccc2)cc1 ?
0.121 µM

And O=C(N/N=C/c1ccc(O)cc1O)c1ccc(Nc2ccnc(C(F)(F)F)c2)cc1 ?
15 µM

And for CO/N=C1/NC(=O)/C(=C/c2ccc3ncccc3c2)S1 ?
4.48 µM

Likewise for CN(C)CC#Cc1cccc(C(=O)c2cnn(-c3ccc(F)cc3)c2N)c1 ?
> 17.7 µM

Could you do the same for C#CC[C@H](c1nc2cc(Cl)ccc2c(=O)n1Nc1ccccc1)N(CCCN)C(=O)c1cccc(Cl)c1F , please?
0.179 µM

Try this compound too: CCc1nc2ccc(Cc3ccc(C(=O)NO)cc3)cc2c(=O)n1CCc1ccccc1
1.36 µM

Please answer likewise for O=C1C(Cl)=C(N2CCOCC2)C(=O)c2ccccc21
1.52 µM

----------
TGI values, listed per item
Test system: OVCAR-4 ovarian
Test: NCI tumour cell line growth inhibition, 48 h

Solved cases below.
Cc1c(Cl)cccc1NC(=O)c1sc2nc3c(cc2c1N)CCCCCC3 = 15.2 µM
Cc1cc(S(=O)(=O)NC#N)c(S/C(=N\Nc2ccc([N+](=O)[O-])cc2)c2ccccc2)cc1Cl = 31.8 µM
COC1CC(OS(=O)(=O)c2ccc(C)cc2)C(OS(=O)(=O)c2ccc(C)cc2)C(COS(=O)(=O)c2ccc(C)cc2)O1 (stereo not drawn) = 1.12 µM
CCOC(=O)C(Cc1c[nH]c2cc([N+](=O)[O-])ccc12)(NC(C)=O)C(=O)OCC = > 1000 µM
CC1(C)OC[C@@]2([C@@H]3CC[C@@H](C3)C2(C)C)N1O = > 100 µM
NNC(=O)CCCCCCCC(=O)O = > 100 µM
COc1cc(/C=C/C(=O)O)ccc1O = > 100 µM
COC(=O)c1cc(C)ccc1CC(Cc1ccccc1C)C(=O)OC (stereo not drawn) = > 100 µM

What measured TGI goes with Cc1ccc2c(=O)[nH]sc2c1 ?
> 100 µM

# iterate: CCS(=O)(=O)c1ccc(OC)c(Nc2nccc(N(C)c3ccc4c(C)[nH]nc4c3)n2)c1
> 25 µM

Also O=C(CNC(=O)c1cccc2ccccc12)Nc1ccccc1Oc1ccccc1 , if possible.
> 10 µM

Follow-up entry: C=C1C(C[C@@H]2O[C@H]3C[C@H]4O[C@@]5(C[C@@H]6O[C@]7(C[C@H](C)[C@@H]8O[C@@H]9CC(C(O)CO)O[C@@H]9C[C@@H]8O7)C[C@H](C)[C@@H]6O5)C[C@H]4O[C@H]3[C@H](C)[C@H]2O)O[C@@H](CC[C@@H]2O[C@@H](CC[C@@]34CC5O[C@H]6C(O[C@H]7CC[C@H](CC(=O)OC)O[C@@H]7[C@@H]6O3)[C@H]5O4)CC2=C)C[C@H]1C (stereo partly drawn)
> 1 µM

And the next one, Cc1cccc(C)c1NC(=O)C(=O)CC(=O)CO ?
> 100 µM

Also CC(=O)O/C(=C(/C#N)C(=O)O)C1C(C(=O)O)C(c2ccccc2[N+](=O)[O-])C=C(c2ccco2)N1c1ccncc1 (stereo not drawn) ?
37.4 µM

How about COc1cc(-c2cn(-c3ccc(Cl)cc3)c(=O)[nH]2)cc(OC)c1OC ?
> 100 µM

Try this molecule next: O=C(N/N=C/c1cc(Br)cc(Br)c1[O-])c1ccccc1O.O=C(N/N=C/c1cc(Br)cc(Br)c1[O-])c1ccccc1O.[Mn+2]
17.5 µM

Please answer likewise for COc1ccc(NC(C)=O)c(C(=O)CCNC(C)=O)c1
> 100 µM

Consider next the molecule Cc1ccc(NC2=C(Sc3ccc(Cl)cc3)C(=O)N(Cc3ccccc3)C2=O)cc1Cl in the same way.
18 µM

----------
Test system: HS 578T breast
Experiment: NCI tumour cell line growth inhibition, 48 h; in the data active means GI50 below about 0.43 µM; inactive means the rest
*1 amine or outer side, *2 acyl side, *3 side chain or, on linkers, in order; H or OH if unused. Where a SMILES comes first, the peptide text is derived from it. Bridges are numbered along the chain shown (N, C = ends). [ ]: non-standard residue; d: D form. The star is where a group is joined. Phe(3-Me) = Cc1cccc(C[C@H](N)C(=O)O)c1; NH(4-Cl-2-F-phenyl) = Fc1cc(Cl)ccc1N*; Pro(4R-Me) = C[C@H]1CN[C@H](C(=O)O)C1; Hyp = O=C(O)[C@@H]1C[C@@H](O)CN1; aThr = C[C@H](O)[C@H](N)C(=O)O; Pip = O=C(O)[C@@H]1CCCCN1; CO = O=C([*:1])[*:2]
Reply using exactly one outcome from TRUE = active, FALSE = inactive

CCOC(=O)[C@@H](C)C[C@H](Cc1ccccc1)NC(=O)c1csc([C@@H](C[C@H](C(C)C)N(C)C(=O)[C@H](CCC(C)C)NC(=O)[C@H]2CCCCN2C)OC(C)=O)n1 = TRUE
Cc1cc(-c2nc3ccc(O)cc3s2)ccc1N = FALSE

Answer briefly: the call reported for Cc1ccc(C(=O)N/N=C/c2cccc(Oc3ccccc3)c2)cn1 in this assay.
FALSE

Same lookup for COc1ccc(C(=O)c2cc(OC)c(OC)c(OC)c2)cc1O , please.
TRUE

Please give the result for O=C(Nc1ccc(Nc2ccncc2)cc1)c1ccc(Nc2ccnc3ccc([N+](=O)[O-])cc23)cc1 too.
FALSE

Field entry: COc1ccc(/C=C(\C#N)c2cc(OC)c3c(c2)OCO3)cc1
TRUE

Next entry: Cc1cccc(C[C@H](NC(=O)Nc2ccc(Cl)cc2F)C(=O)N[C@@H]2C(=O)N3C[C@H](O)C[C@H]3C(=O)N3CCCC[C@H]3C(=O)N[C@@H](C)C(=O)N3C[C@H](C)C[C@H]3C(=O)O[C@H]2C)c1 ({NH(4-Cl-2-F-phenyl)-CO}-[Phe(3-Me)][aThr][Hyp][Pip]A[Pro(4R-Me)]; ester 2-C)
FALSE

Continue with C[C@@H]1CCN(C(=O)CC#N)C[C@@H]1N(C)c1ncnc2[nH]ccc12
FALSE

Cc1cc2c(C(N)=O)cccc2n1-c1nc2c(c(NCc3ccccc3)n1)CCCN2 ?
TRUE

// next record c1cncc(CNc2ccccc2-c2nnc(Nc3ccc4c(c3)OCCO4)o2)c1
TRUE

Now the compound Cc1cc(S(=O)(=O)NC#N)c(S/C(=N\Nc2ccc([N+](=O)[O-])cc2)c2ccccc2)cc1Cl
FALSE

Try this compound too: O=c1[nH]nc2c3c(cccc13)NC(CN1Cc3ccccc3C1)=N2
FALSE

How about this compound: COc1cc(-c2cn(-c3ccc(Cl)cc3)c(=O)[nH]2)cc(OC)c1OC
FALSE

Reference source for all entries: PubChem BioAssay (NCI)
